Hey, just so you know, these numbers are from ChEMBL document CHEMBL4190402.

Target: Parathyroid hormone/parathyroid hormone-related peptide receptor (Homo sapiens)
Experiment: Agonist activity at human PTHR1 expressed in HKRKB7 cells assessed as accumulation of intracellular cAMP after 20 mins by enzyme immunoassay
Format: functional, cell-based
measure name: EC20 (µM)

Examples with their reported EC20 follow.
> print(dat)
                         structure.notation  recorded.measurement
1  O=C1NC(C2CCCCC2)=NC12CCN(S(=O)(=O)c1cccc(Cl)c1)CC2                   140
2  O=C1NC(c2ccc(Cl)cc2Cl)=NC12CCN(S(=O)(=O)c1cccc(Cl)c1)CC2                   530
3  O=C1NC(c2ccc(Cl)cc2Cl)=NC12CCN(S(=O)(=O)CCc1cccc3ccccc13)CC2                   150
4  O=C1NC(C2CCCCC2)=NC12CCN(S(=O)(=O)CCc1cccc3ccccc13)CC2                    15
5  Cc1cc(N(C)C(N)=O)cc(C)c1CCS(=O)(=O)N1CCC2(CC1)N=C(C1CCCCC1)NC2=O                   8.1

(a) CC(=O)Nc1cc(C)c(CCS(=O)(=O)N2CCC3(CC2)N=C(C2CCCCC2)NC3=O)c(C)c1
(b) Cc1cc(N(C)C(N)=O)cc(C)c1CCS(=O)(=O)N1CCC2(CC1)N=C([C@H]1CC[C@H](C)CC1)NC2=O
[Q] So which one has the bigger EC20 here, a or b ? Please respond with the label that marks your chosen entry.
[A] a
